# Target Under Test: aldosterone receptor (Rattus norvegicus)
# Construct: centrifuged at 105,000 g for 30 minutes, and then a supernatant was collected as a renal soluble fraction
# Sequence (P22199 1-981): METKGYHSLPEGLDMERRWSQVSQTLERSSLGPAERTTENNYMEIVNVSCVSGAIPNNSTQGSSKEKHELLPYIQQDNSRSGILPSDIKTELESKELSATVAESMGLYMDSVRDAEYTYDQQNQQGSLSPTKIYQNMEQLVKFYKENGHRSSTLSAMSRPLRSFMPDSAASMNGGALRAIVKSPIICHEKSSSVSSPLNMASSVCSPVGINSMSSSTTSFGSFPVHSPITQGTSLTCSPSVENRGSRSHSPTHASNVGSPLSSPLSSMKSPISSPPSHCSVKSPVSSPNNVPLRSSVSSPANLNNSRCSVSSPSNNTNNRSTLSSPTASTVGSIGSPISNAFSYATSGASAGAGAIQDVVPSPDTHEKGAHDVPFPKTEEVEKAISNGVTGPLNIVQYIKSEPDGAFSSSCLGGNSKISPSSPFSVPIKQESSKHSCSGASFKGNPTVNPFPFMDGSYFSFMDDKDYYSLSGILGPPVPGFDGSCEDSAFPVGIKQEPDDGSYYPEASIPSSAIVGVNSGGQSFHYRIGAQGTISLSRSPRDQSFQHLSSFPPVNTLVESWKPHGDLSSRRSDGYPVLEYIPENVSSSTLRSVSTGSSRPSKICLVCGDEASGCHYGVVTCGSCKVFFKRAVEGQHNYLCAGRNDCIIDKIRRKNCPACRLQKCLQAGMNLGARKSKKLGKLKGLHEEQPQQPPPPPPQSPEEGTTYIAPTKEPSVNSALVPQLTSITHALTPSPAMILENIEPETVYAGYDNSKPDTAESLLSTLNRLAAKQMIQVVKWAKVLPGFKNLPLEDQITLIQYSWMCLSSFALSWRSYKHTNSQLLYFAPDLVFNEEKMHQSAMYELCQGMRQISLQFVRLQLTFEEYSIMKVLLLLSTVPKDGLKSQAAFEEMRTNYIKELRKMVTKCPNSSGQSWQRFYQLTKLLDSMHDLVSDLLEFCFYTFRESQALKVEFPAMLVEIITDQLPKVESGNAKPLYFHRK
# Protocol: Binding inhibition test for aldosterone receptor ([3H]aldosterone, rat renal soluble fraction)
# Test Settings: [3H]aldosterone 2 nM, rat renal soluble fraction, in the presence of 2 μM RU-486, 4° C. about 18 hours; read-out: MR IC50
Below, each of the compounds is paired with its reported IC50 value.

NS(=O)(=O)c1cccc(NC(=O)c2ccc(-c3ccccc3)c(CN3CCCCC3)c2)c1 [compound 2]    > 10 µM

Q) // Input: COc1cc(NC(=O)c2ccc(-c3ccc(C)cc3C(F)(F)F)c(CNCC(F)F)c2)ccc1S(N)(=O)=O [Example 440] . Output its IC50 only.
A) < 10 µM

Q) Give me measured IC50, please, for this compound: COc1cc(NC(=O)c2ccc(-c3ccc(Cl)cc3C(F)(F)F)c(CNCC(F)F)c2)ccc1S(N)(=O)=O [Example 474]
A) < 10 µM

Q) Report IC50, nothing else, for this compound: COc1cccc(NC(=O)c2ccc(-c3ccccc3)c(CN3CCCCC3)c2)c1 [compound 1]
A) > 10 µM

Q) Supply reported IC50 belonging to this compound: CN(Cc1ccc(F)cc1)Cc1cc(C(=O)Nc2ccc(S(C)(=O)=O)cc2)ccc1-c1ccccc1OC(F)(F)F [Example 231]
A) < 10 µM
